tested on: corn; test: Test C preemergence; type: in vivo, Zea mays; settings: preemergence, 250 g ai/ha; scale 0 to 100, 0 is no effect, 100 is complete control
The reader will find reported Corn plant response rating values listed item by item below.
Quick one: just the number, no unit, thanks!

If you can, please state the reported Corn plant response rating value of CCNC(=O)c1cc(CC)n(Cc2cc(C(F)(F)F)nn2C)n1 .
95

If you can, please state the reported Corn plant response rating value of CCCc1cc(C(=O)NC2CC2)nn1Cc1ccnc(OC(F)F)c1 .
98

If you can, please state the reported Corn plant response rating value of CCCc1cc(C(=O)NC(C)C)nn1Cc1cc(C(F)(F)F)nn1C .
95

Turning now to a further compound:
If you can, please state the reported Corn plant response rating value of CCCNC(=O)c1cc(OCC)n(Cc2ccnc(OC(F)F)c2)n1 .
85

----------
system: crabgrass, large; test: Test A postemergence; assay type: in vivo, Digitaria sanguinalis; conditions: Postemergence, 1000 g ai/ha; visual rating after approx. 10 days, 0 to 100 scale (0 no effect, 100 complete control)
parameter: Crabgrass, Large plant response rating

If you can, please state the reported Crabgrass, Large plant response rating value of CCCc1cc(C(=O)NCC)nn1Cc1cccc(OC(F)(F)F)c1 .
80

More entries:
If you can, please state the reported Crabgrass, Large plant response rating value of CCc1cc(C(=O)NC(C)(C)C)nn1Cc1cccc(C(F)(F)F)c1 .
10

----------
system: galium; assay: Test C postemergence; assay type: in vivo, Galium aparine; settings: postemergence, 250 g ai/ha; scale 0 to 100 (0 no effect, 100 complete control)
Excerpt: […]
The reader will find reported Plant response rating, Galium values listed item by item below.
Quick one: just the number, no unit, thanks!

If you can, please state the reported Plant response rating, Galium value of CCc1cc(C(=O)NOC(C)C)nn1Cc1ccnc(OC(F)F)c1 .
70

More entries:
If you can, please state the reported Plant response rating, Galium value of CCCNC(=O)c1cc(CC)n(Cc2nc(C(F)(F)F)nn2C)n1 .
80

If you can, please state the reported Plant response rating, Galium value of CCc1cc(C(=O)NCC(F)(F)F)nn1Cc1cc(C(F)(F)F)nn1C .
90

If you can, please state the reported Plant response rating, Galium value of CCOc1cc(C(=O)NOC(C)C)nn1Cc1ccnc(C(F)(F)F)c1 .
80

If you can, please state the reported Plant response rating, Galium value of CCOc1cc(C(=O)NCC(F)(F)F)nn1Cc1ccnc(OC(F)F)c1 .
70

----------
tested on: cupgrass, woolly; experiment: Test C postemergence; assay type: in vivo, Eriochloa villosa; conditions: postemergence; 125 g ai/ha; scale 0 to 100, 0 no effect, 100 complete control
The reader will find reported Plant response rating, Cupgrass, Woolly values listed item by item below.
Quick one: just the number, no unit, thanks!

If you can, please state the reported Plant response rating, Cupgrass, Woolly value of CCc1cc(C(=O)NOC(C)C)nn1Cc1cccc(OC(F)(F)F)c1 .
15

If you can, please state the reported Plant response rating, Cupgrass, Woolly value of CCONC(=O)c1cc(CC)n(Cc2cccc(OC(F)(F)F)c2)n1 .
10

If you can, please state the reported Plant response rating, Cupgrass, Woolly value of CCc1cc(C(=O)NCC(F)(F)F)nn1Cc1cccc(OC(F)(F)F)c1 .
15

Turning now to a further compound:
If you can, please state the reported Plant response rating, Cupgrass, Woolly value of CCCNC(=O)c1cc(CC)n(Cc2cccc(OC(F)(F)F)c2)n1 .
10
